Ref: patent US20230027075A1

# assayed target: human-CD73 (Trp27-Lys547, His-tag) (Homo sapiens)
# Sequence (P21589 27-547): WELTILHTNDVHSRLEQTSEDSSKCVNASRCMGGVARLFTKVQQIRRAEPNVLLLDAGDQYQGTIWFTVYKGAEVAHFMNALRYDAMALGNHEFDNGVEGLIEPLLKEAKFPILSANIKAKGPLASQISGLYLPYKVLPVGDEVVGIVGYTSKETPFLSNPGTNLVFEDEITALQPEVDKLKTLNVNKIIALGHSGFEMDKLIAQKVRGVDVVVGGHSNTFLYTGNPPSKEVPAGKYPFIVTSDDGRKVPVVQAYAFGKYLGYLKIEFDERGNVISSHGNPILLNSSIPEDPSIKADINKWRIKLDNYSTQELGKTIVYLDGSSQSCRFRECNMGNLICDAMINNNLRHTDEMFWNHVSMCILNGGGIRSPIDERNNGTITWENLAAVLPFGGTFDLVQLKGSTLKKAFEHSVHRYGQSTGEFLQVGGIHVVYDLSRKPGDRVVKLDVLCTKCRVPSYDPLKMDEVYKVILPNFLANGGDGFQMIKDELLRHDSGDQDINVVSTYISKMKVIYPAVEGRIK
pIC50: −log10 of the molar value.
# reported pIC50; entries follow

# example entries with known answers
NC(=O)c1cc(S(=O)(=O)Nc2ccc(CCCNc3nc(N)n4nc(-c5ccco5)nc4n3)c(O)c2)cc(Cl)c1O : > 7.00
NC(=O)c1cc(S(=O)(=O)Nc2cccc3c2cnn3CCNc2nc(N)n3nc(-c4ccco4)nc3n2)cc(Cl)c1O [Example D2] : < 6.00
COC(=O)[C@@H](NC(=O)Oc1c(Cl)cc(S(=O)(=O)Nc2ccc(CCCNc3nc(N)n4nc(-c5ccco5)nc4n3)cc2)cc1C(N)=O)C(C)C : > 7.00
NC(=O)c1cc(S(=O)(=O)Nc2cccc(CNc3nc(N)n4nc(-c5ccco5)nc4n3)c2)cc(Cl)c1O : < 6.00
NC(=O)c1cc(S(=O)(=O)Nc2ccc(CCCNc3nc(N)n4nc(-c5ccco5)nc4n3)c(F)c2)cc(Cl)c1O : > 7.00

Ask | Entry `NC(=O)c1cc(S(=O)(=O)Nc2ccc(CCCNc3nc(N)n4nc(-c5ccco5)nc4n3)cc2)cc(Cl)c1O` has what pIC50?
Reply | > 7.00

====

# assayed target: A2aR (Homo sapiens)
# Construct: expressed in transfected cells
# protocol description: A2aR biochemical assay (TR-FRET binding, Tag-lite A2aR labelled cells, fluorescent antagonist)
# details: 20 μM compound; 10 nM fluorescent A2aR antagonist; vs DMSO control; read-out: % inhibition at 20 μM (Percent inhibition data in A2aR)
value kind: inhibition at 20 µM (%)

NC(=O)c1cc(S(=O)(=O)Nc2ccc(CCCNc3nc(N)n4nc(-c5ccco5)nc4n3)c(O)c2)cc(Cl)c1O : 83
NC(=O)c1cc(S(=O)(=O)Nc2ccc(CCNc3nc(N)n4nc(-c5ccco5)nc4n3)cc2F)cc(Cl)c1O : 84
NC(=O)c1cc(S(=O)(=O)Nc2ccc(CCNc3nc(N)n4nc(-c5ccco5)nc4n3)cc2)cc(Cl)c1O : 83
NC(=O)c1cc(S(=O)(=O)Nc2ccc(CCNc3nc(N)n4nc(-c5ccco5)nc4n3)c(O)c2)cc(Cl)c1O : 84
Nc1nc(NCCc2ccc(NS(=O)(=O)c3ccc(O)c(C(F)(F)F)c3)cc2)nc2nc(-c3ccco3)nn12 : 88
COc1c(Cl)cc(S(=O)(=O)Nc2ccc(CCCNc3nc(N)n4nc(-c5ccco5)nc4n3)cc2)cc1C(N)=O : 83
NC(=O)c1cc(S(=O)(=O)Nc2ccc(CCCNc3cc4nc(-c5ccco5)nn4c(N)n3)cc2)cc(Cl)c1O : 83

====

# assayed target: A2aR (Homo sapiens, UniProt P29274)
# Construct: expressed in transfected cells
# Sequence (P29274 whole entry): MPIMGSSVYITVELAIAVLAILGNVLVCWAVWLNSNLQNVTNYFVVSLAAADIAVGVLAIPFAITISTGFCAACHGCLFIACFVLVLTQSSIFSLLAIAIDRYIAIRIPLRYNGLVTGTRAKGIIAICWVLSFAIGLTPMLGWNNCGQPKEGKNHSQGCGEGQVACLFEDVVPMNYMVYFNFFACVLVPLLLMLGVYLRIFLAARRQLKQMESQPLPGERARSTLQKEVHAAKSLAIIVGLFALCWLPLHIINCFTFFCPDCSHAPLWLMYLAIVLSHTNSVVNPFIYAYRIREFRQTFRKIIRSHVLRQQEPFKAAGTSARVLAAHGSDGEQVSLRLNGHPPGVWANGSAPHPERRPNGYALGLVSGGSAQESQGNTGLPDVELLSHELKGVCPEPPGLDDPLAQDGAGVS
# protocol description: A2aR biochemical assay (TR-FRET binding, Tag-lite A2aR labelled cells, fluorescent antagonist)
# details: 20 μM compound; 10 nM fluorescent A2aR antagonist; vs DMSO control; read-out: % inhibition at 20 μM (Percent inhibition data in A2aR)
value kind: inhibition at 20 µM (%)

Nc1nc(NCCc2ccc(NS(=O)(=O)c3cc(Cl)c4c(c3)CC(=O)N4)cc2)nc2nc(-c3ccco3)nn12 : 80
NC(=O)c1cc(S(=O)(=O)Nc2ccc(CCCNc3nc(N)n4nc(-c5ccco5)nc4n3)cc2F)cc(Cl)c1O : 83
NC(=O)c1cc(S(=O)(=O)Nc2ccc(CCNc3cc(N)n4nc(-c5ccco5)nc4n3)nc2)cc(Cl)c1O [Example E2] : 85
NC(=O)c1cc(S(=O)(=O)Nc2cccc3c2cnn3CCNc2nc(N)n3nc(-c4ccco4)nc3n2)cc(Cl)c1O [Example D2] : 79

====

# assayed target: human-CD73 (Trp27-Lys547, His-tag) (Homo sapiens, UniProt P21589)
# Construct: human-CD73 (Trp27-Lys547, His-tag); His-tag
# protocol description: CD73 biochemical assay (colorimetric, Malachite Green phosphate detection)
# details: 20 μM compound; 2 nM CD73, 50 μM AMP; read-out: % inhibition at 20 μM (Percent inhibition data in CD73)
value kind: inhibition at 20 µM (%)

COC(=O)[C@@H](NC(=O)Oc1c(Cl)cc(S(=O)(=O)Nc2ccc(CCCNc3nc(N)n4nc(-c5ccco5)nc4n3)cc2)cc1C(N)=O)C(C)C : 99
NC(=O)c1cc(S(=O)(=O)Nc2ccc(CCCNc3cc(N)n4nc(-c5ccco5)nc4n3)c(F)c2)cc(Cl)c1O : 95
Nc1nc(NCCc2ccc(NS(=O)(=O)c3ccc(O)c(C(F)(F)F)c3)cc2)nc2nc(-c3ccco3)nn12 : 17

A. NC(=O)c1cc(S(=O)(=O)Nc2ccc(CCCNc3cc(N)n4nc(-c5ccco5)nc4n3)cc2)cc(Cl)c1O
B. NC(=O)c1cc(S(=O)(=O)Nc2ccc3ccn(CCNc4nc(N)n5nc(-c6ccco6)nc5n4)c3c2)cc(Cl)c1O [Example D1]
Ask | Could you tell me which of these two has the smaller inhibition at 20 µM figure? First: A Second: B Let me know the label of the one you choose.
Reply | B
(B: 49%, A: 92%)

P. NC(=O)c1cc(S(=O)(=O)Nc2ccc(CCCOc3nc(N)n4nc(-c5ccco5)nc4n3)cc2)cc(Cl)c1O
Q. Nc1nc(NCCc2ccc(NS(=O)(=O)c3cc(F)c(O)c(Cl)c3)cc2)nc2nc(-c3ccco3)nn12
R. NC(=O)c1cc(S(=O)(=O)Nc2cccc3c2cnn3CCNc2nc(N)n3nc(-c4ccco4)nc3n2)cc(Cl)c1O [Example D2]
S. Nc1nc(NCCc2ccc(NS(=O)(=O)c3cc(Cl)c4[nH]ccc(=O)c4c3)cc2)nc2nc(-c3ccco3)nn12
Ask | Sequence the entries by inhibition at 20 µM, beginning with the highest number. Your answer should be the labels, listed in the requested order.
Reply | P, R, Q, S
(P: 99%, R: 62%, Q: 27%, S: 9%)

1. NC(=O)c1cc(S(=O)(=O)Nc2ccc(CCNc3nc(N)n4nc(-c5ccco5)nc4n3)c(O)c2)cc(Cl)c1O
2. Nc1nc(NCCc2ccc(NS(=O)(=O)c3cc(Cl)c4c(c3)CC(=O)N4)cc2)nc2nc(-c3ccco3)nn12
3. COc1c(Cl)cc(S(=O)(=O)Nc2ccc(CCCNc3nc(N)n4nc(-c5ccco5)nc4n3)cc2)cc1C(N)=O
Ask | Returns the items ordered by inhibition at 20 µM, from maximum to minimum. Output spec: a listing of the labels in the requested order.
Reply | 1, 3, 2

1. NC(=O)c1cc(S(=O)(=O)Nc2ccc(CCNc3nc(N)n4nc(-c5ccco5)nc4n3)cc2)cc(Cl)c1O
2. CC(C)COC(=O)Nc1nc(NCCc2ccc(NS(=O)(=O)c3cc(Cl)c(O)c(C(N)=O)c3)cc2)nc2nc(-c3ccco3)nn12
Ask | Sorting by inhibition at 20 µM in descending order, would 1 or 2 appear first? // return label of chosen record
Reply | 1
(1: 96%, 2: 39%)

1. NC(=O)c1cc(S(=O)(=O)Nc2ccc(CCNc3nc(N)n4nc(-c5ccco5)nc4n3)c(F)c2)cc(Cl)c1O
2. NC(=O)c1cc(S(=O)(=O)Nc2ccc(CCNc3nc(N)n4nc(-c5ccco5)nc4n3)cc2F)cc(Cl)c1O
Ask | When 1 and 2 are compared, which has the higher number for inhibition at 20 µM? Response format: the label of the selected entry.
Reply | 1

====

Target protein (sequence): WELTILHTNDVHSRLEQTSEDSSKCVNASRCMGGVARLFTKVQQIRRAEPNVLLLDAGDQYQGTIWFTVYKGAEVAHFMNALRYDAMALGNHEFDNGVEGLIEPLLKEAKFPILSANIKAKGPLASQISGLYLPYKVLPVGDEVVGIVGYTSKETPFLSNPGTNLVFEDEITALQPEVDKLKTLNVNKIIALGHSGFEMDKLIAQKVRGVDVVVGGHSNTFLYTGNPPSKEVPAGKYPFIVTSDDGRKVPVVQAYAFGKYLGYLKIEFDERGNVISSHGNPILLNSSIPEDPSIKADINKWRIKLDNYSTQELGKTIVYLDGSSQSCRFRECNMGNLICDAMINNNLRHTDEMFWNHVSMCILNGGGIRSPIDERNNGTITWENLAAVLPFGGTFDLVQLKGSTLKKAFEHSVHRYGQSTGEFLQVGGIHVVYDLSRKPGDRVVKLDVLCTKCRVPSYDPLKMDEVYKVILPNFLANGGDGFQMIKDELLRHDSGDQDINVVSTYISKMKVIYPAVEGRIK
pIC50: −log10 of the molar value.
value kind: pIC50

NC(=O)c1cc(S(=O)(=O)Nc2ccc3ccn(CCNc4nc(N)n5nc(-c6ccco6)nc5n4)c3c2)cc(Cl)c1O [Example D1] : 6.00 to 6.96

Ask | Please give the measured pIC50 for this molecule: NC(=O)c1cc(S(=O)(=O)Nc2ccc(CCNc3nc(N)n4nc(-c5ccco5)nc4n3)nc2)cc(Cl)c1O [Example E1]
Reply | < 6.00

Ask | Item: NC(=O)c1cc(S(=O)(=O)Nc2ccc(CCCNc3cc(N)n4nc(-c5ccco5)cc4n3)cc2)cc(Cl)c1O [Example A24]
Reply | > 7.00

Ask | Quick one: NC(=O)c1cc(S(=O)(=O)Nc2ccc(CCCOc3cc(N)n4nc(-c5ccco5)nc4n3)cc2)cc(Cl)c1O [Example A21]
Reply | 6.00 to 6.96

Ask | Moving on to the next molecule: CN(CCCc1ccc(NS(=O)(=O)c2cc(Cl)c(O)c(C(N)=O)c2)cc1)c1nc(N)n2nc(-c3ccco3)nc2n1 [Example A17]
Reply | 6.00 to 6.96

Ask | Another: NC(=O)c1cc(S(=O)(=O)Nc2ccc(CCNc3nc(N)n4nc(-c5ccco5)nc4n3)c(F)c2)cc(Cl)c1O [Example A6]
Reply | 6.00 to 6.96

Ask | Field entry: NC(=O)c1cc(S(=O)(=O)Nc2ccc(CCNc3cc(N)n4nc(-c5ccco5)nc4n3)nc2)cc(Cl)c1O [Example E2]
Reply | 6.00 to 6.96
